Test system: Dirofilaria immitis microfilariae
Experiment: In Vitro Assay 2: Dirofilaria immitis microfilariae (DIROIM L1) motility
Assay type: cell-based
Conditions: 72 h, read-out: EC50 ppm
MEASUREMENT TYPE: EC50 (µg/mL)
Give just the number in µg/mL; leave the unit off.

Guide cases for EC50, answers given:
CC1=C(C(=O)N[C@H]2CCCc3ccccc32)C(C)c2cccc(-c3cc(F)cc(F)c3F)c2O1 (some centres unmarked): 0.08
O=C(N[C@H]1CCOc2ccccc21)C1=Cc2cccc(-c3cccc(Cl)c3Cl)c2OC1: 0.09
CC(C)n1c(C(=O)N[C@H]2CCOc3ccccc32)cc2c(-c3cccc(Cl)c3Cl)cccc21: 0.01

The compound `CN(C)c1c(C(=O)N[C@H]2CCOc3ccccc32)sc2c(-c3cc(Cl)cc(Cl)c3)cccc12` showed EC50 equal to 0.25

The compound `O=C(N[C@H]1CCOc2ccccc21)c1cnc2c(ccc(=O)n2-c2cc(Cl)cc(Cl)c2)c1` showed EC50 equal to 1.95

The compound `COc1c(C(=O)N[C@H]2CCOc3ccccc32)sc2c(-c3cc(Cl)cc(Cl)c3)cccc12` showed EC50 equal to 0.27

The compound `CC(C)n1c(C(=O)N[C@H]2CCOc3ccccc32)cc2c(-c3cc(F)cc(F)c3F)cccc21` showed EC50 equal to 0.0086

The compound `Cn1c(C(=O)N[C@H]2CCOc3ccccc32)nc2c(-c3cccc(Cl)c3Cl)ccnc21` showed EC50 equal to 0.63

The compound `O=C(N[C@H]1CCOc2ccccc21)c1sc2c(-c3cccc(Cl)c3Cl)cccc2c1Cl` showed EC50 equal to 0.1

The compound `CC(C)c1c(C(=O)N[C@H]2CCOc3ccccc32)sc2c(-c3ccc(F)c(F)c3)cccc12` showed EC50 equal to 0.77

The compound CC1=C(C(=O)N[C@H]2CCc3ccccc32)C(C)c2cccc(-c3cc(Cl)cc(Cl)c3)c2O1 (some centres unmarked) showed EC50 equal to 1.47

The compound `O=C(N[C@H]1CCOc2ccccc21)c1cc2cccc(-c3cccc(Cl)c3Cl)c2oc1=O` showed EC50 equal to 0.25

====

// log10 EC50 collected for C. elegans Slo-1a (Caenorhabditis elegans, UniProt Q95V25)
Lab note - EC50 converted to log10 from values in nM.

Guide cases for log10 EC50, answers given:
O=C(N[C@H]1CCOc2ccccc21)c1sc2c(-c3cc(Cl)cc(Cl)c3)ccc(F)c2c1N1CCOCC1 [Example Compound S1-18]: 2.10
O=C(N[C@H]1CCOc2ccccc21)c1c(N2CCOCC2)c2cccc(-c3cc(Cl)cc(Cl)c3)c2[nH]c1=O [Example Compound S8a-6]: 1.60
CC(C)c1c(C(=O)N[C@H]2CCOc3ccccc32)nc2c(-c3cccc(Cl)c3Cl)cccn12 [Example Compound S3-1]: 2.40

The molecule O=C(N[C@H]1CCOc2ccccc21)c1cnc2c(cnn2-c2c(F)cccc2F)c1Cl [Example Compound S4-1] showed log10 EC50 equal to 3.05

The molecule COc1c(C(=O)N[C@H]2CCOc3ccccc32)sc2c(-c3cc(Cl)cc(Cl)c3)nccc12 [Example Compound S1-14] showed log10 EC50 equal to 2.90

The molecule O=C(N[C@H]1CCOc2ccccc21)c1ccc2nc(-c3ccccc3Cl)cnc2c1 [Example Compound S9-2] showed log10 EC50 equal to 2.80

The molecule Cc1nn(-c2cc(Cl)cc(Cl)c2)c2ncc(C(=O)N[C@H]3CCOc4ccccc43)c(N(C)C)c12 [Example Compound S4-2] showed log10 EC50 equal to 3.30

The molecule COc1c(C(=O)N[C@H]2CCOc3ccccc32)sc2c(-c3cccc(Cl)c3Cl)cccc12 [Example Compound S1-11] showed log10 EC50 equal to 1.50

The molecule O=C(N[C@H]1CCc2ccccc21)c1ccc2nc(-c3cccc(C(F)(F)F)c3Cl)cnc2c1 [Example Compound S9-6] showed log10 EC50 equal to 1.50

The molecule CC(C)c1c(C(=O)N[C@H]2CCOc3ccccc32)sc2c(-c3cc(Cl)cc(Cl)c3)cccc12 [Example Compound S1-1] showed log10 EC50 equal to 0.40

The molecule CC(C)c1c(C(=O)N[C@H]2CCc3ccccc32)ccc2c1nnn2-c1ccccc1Cl [Example Compound S4-10] showed log10 EC50 equal to 3.50

The molecule CC(C)c1c(C(=O)N[C@H]2CCc3ccccc32)ccc2c1nnn2-c1cccc(C(F)(F)F)c1 [Example Compound S4-9] showed log10 EC50 equal to 3.20
